Target: IDO1 (Homo sapiens)
Sequence (P14902 whole entry): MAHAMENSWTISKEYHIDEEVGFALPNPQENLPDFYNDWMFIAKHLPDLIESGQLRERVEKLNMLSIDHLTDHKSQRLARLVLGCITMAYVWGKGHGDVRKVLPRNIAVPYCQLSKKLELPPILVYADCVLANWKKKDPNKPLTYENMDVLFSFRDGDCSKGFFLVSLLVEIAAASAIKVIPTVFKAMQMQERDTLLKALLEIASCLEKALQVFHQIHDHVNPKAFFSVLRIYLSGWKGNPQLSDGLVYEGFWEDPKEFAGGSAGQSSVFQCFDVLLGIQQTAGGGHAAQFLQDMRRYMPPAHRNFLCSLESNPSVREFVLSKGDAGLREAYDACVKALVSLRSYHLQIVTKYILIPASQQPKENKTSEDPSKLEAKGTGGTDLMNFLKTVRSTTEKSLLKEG
Test: IDO1 enzymatic assay
Format: biochemical
Parameters: His tag (N); made in house; host or cells: E. coli
Settings: read-out: Enzyme IC50 IDO1
pIC50: −log10 of the molar value.
readout.kind: pIC50

>>> reported_result("CC(C)c1ccc2cncn2c1C(O)C1CCC(c2cccc(F)c2)CC1 (stereo not shown)")
7.16
>>> reported_result("O[C@H](c1c(C2CC2)ccc2cncn12)[C@H]1CC[C@H](c2cccc(Cl)c2)CC1 (single isomer, unassigned) [Example D116a]")
7.82
>>> reported_result("OC(c1c(C2CC2)ccn2cncc12)C1CCC(c2cccc(Cl)c2)CC1 (stereo not shown)")
7.06
>>> reported_result("Nc1ccc([C@H]2CC[C@H]([C@@H](O)c3c(C4CC4)ccc4cncn34)CC2)cc1 (single isomer, unassigned) [Example D122b]")
5.28
